Data origin: patent US10660877B2

# TARGET UNDER TEST: human TLR9 (Homo sapiens (Human), UniProt Q9NR96)
# Sequence (Q9NR96 26-1032): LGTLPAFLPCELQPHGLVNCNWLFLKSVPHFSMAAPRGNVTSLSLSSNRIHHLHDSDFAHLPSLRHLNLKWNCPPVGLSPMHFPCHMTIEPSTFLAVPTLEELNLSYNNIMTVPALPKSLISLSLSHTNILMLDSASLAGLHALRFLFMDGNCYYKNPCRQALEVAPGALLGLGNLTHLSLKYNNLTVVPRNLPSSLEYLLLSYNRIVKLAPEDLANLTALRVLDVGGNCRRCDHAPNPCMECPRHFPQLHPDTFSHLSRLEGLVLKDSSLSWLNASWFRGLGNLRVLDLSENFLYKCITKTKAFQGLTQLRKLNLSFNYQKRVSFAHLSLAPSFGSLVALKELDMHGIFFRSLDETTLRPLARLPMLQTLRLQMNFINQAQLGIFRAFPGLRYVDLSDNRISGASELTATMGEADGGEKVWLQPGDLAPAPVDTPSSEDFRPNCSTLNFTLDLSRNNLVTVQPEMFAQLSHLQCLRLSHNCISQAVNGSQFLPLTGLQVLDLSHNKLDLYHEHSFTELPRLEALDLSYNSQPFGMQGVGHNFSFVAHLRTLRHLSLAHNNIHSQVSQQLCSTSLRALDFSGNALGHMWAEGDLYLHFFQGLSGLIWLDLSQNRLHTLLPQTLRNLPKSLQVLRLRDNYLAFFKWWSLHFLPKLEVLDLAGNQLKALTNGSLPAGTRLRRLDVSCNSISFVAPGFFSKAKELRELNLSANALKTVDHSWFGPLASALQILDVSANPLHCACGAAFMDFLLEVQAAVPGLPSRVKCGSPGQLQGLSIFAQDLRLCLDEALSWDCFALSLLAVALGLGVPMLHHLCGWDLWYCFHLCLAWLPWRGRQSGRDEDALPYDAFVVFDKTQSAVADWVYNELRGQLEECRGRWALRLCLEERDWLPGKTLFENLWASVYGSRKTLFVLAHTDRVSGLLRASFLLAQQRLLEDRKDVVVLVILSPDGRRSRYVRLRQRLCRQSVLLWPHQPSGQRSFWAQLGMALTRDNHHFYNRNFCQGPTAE
# MEASUREMENT DESCRIPTION: TLR9 inhibition reporter assay (HEK-Blue cells, SEAP reporter, ODN2006 stimulation);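 also: compounds tested over 0.05 nM to 50 µM, 22 h incubation, inhibition taken as SEAP signal drop from agonist plus DMSO wells toward a known inhibitor control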
# SETUP CONDITIONS: read-out: TLR9 IC50, HEK-Blue cells overexpressing human TLR9, ODN2006 5 nM
Sorting guide: entries reporting IC50 beneath 1 µM go in the true (1) pile, the rest go in the false (0) pile.

- MOLECULE: "Cc1cc(-c2[nH]c3ccc(C4CCNC(=O)C4)cc3c2C(C)C)ccn1 (stereo not shown)"
  ASSIGNED LABEL: "false (0)"
- MOLECULE: "CCC(CC)C(=O)N1CCC(c2ccc3[nH]c(-c4cc(C)nc(C)c4)c(C(C)C)c3c2)CC1"
  ASSIGNED LABEL: "false (0)"
- MOLECULE: "Cc1cc(-c2[nH]c3ccc(C4CCN(C(=O)CN(C)CCC5(O)CCCC5)CC4)cc3c2C(C)C)cc(C)n1"
  ASSIGNED LABEL: "true (1)"
- MOLECULE: "Cc1cc(-c2[nH]c3ccc(C4CCN(CC5CCOC5)CC4)cc3c2C(C)C)cc(C)n1 (stereo not shown)"
  ASSIGNED LABEL: "true (1)"
- MOLECULE: "Cc1cc(-c2[nH]c3ccc(C4CCN(C(=O)CC5C(=O)NC(=O)N5C)CC4)cc3c2C(C)C)cc(C)n1 (stereo not shown)"
  ASSIGNED LABEL: "false (0)"
- MOLECULE: "COCC(=O)N1CCC(c2ccc3[nH]c(-c4cc(C)nc(C)c4)c(C(C)C)c3c2)CC1"
  ASSIGNED LABEL: "false (0)"
- MOLECULE: "Cc1cc(-c2[nH]c3ccc(C4CCN(C(=O)Cn5ccnn5)CC4)cc3c2C(C)C)cc(C)n1"
  ASSIGNED LABEL: "false (0)"
- MOLECULE: "COCCN1CCN(C(=O)CN2CCC(c3ccc4[nH]c(-c5cc(C)nc(C)c5)c(C(C)C)c4c3)CC2)CC1"
  ASSIGNED LABEL: "true (1)"
- MOLECULE: "Cc1cc(-c2[nH]c3ccc(C4CCN(S(=O)(=O)c5ccc(Cl)cc5)CC4)cc3c2C(C)C)ccn1"
  ASSIGNED LABEL: "false (0)"
- MOLECULE: "CCc1c(-c2ccnc(OC(C)C)c2)[nH]c2ccc(C3CCN(C4CCN(CC(C)C)CC4)CC3)cc12"
  ASSIGNED LABEL: "false (0)"
- MOLECULE: "COc1cc(-c2[nH]c3ccc(C4CCN(C(=O)CN(C)C)CC4)cc3c2C(C)C)ccn1"
  ASSIGNED LABEL: "false (0)"
- MOLECULE: "Cc1cc(-c2[nH]c3ccc(C4CCN(S(=O)(=O)CC(C)C)CC4)cc3c2C(C)C)ccn1"
  ASSIGNED LABEL: "false (0)"
- MOLECULE: "Cc1cc(-c2[nH]c3ccc(C4CCN(C(=O)CC5CC(=O)NC(=O)N5)CC4)cc3c2C(C)C)cc(C)n1 (stereo not shown)"
  ASSIGNED LABEL: "false (0)"
- MOLECULE: "Cc1cc(-c2[nH]c3ccc(C4CCN(C(=O)CN5CC6(COC6)C5)CC4)cc3c2C(C)C)cc(C)n1"
  ASSIGNED LABEL: "true (1)"
- MOLECULE: "Cc1cc(-c2[nH]c3ccc(C4CCN(C(=O)Cn5ccc(C(F)(F)F)n5)CC4)cc3c2C(C)C)cc(C)n1"
  ASSIGNED LABEL: "false (0)"
- MOLECULE: "CCN(CC)C(=O)CN1CCC(c2ccc3[nH]c(-c4cc(C)nc(C)c4)c(C(C)C)c3c2)CC1"
  ASSIGNED LABEL: "false (0)"
- MOLECULE: "Cc1cc(-c2[nH]c3ccc(C4CCN(CC5COC5)CC4)cc3c2C(C)C)c(F)cn1 [Example 650]"
  ASSIGNED LABEL: "false (0)"
- MOLECULE: "Cc1cc(-c2[nH]c3ccc(C4CCN(C(=O)CN5CCCCS5(=O)=O)CC4)cc3c2C(C)C)cc(C)n1"
  ASSIGNED LABEL: "true (1)"
- MOLECULE: "Cc1cc(-c2[nH]c3ccc(C4CCN(C(=O)C5CC5(F)F)CC4)cc3c2C(C)C)cc(C)n1 (stereo not shown)"
  ASSIGNED LABEL: "false (0)"
